Measured protein stability index, listed per entry.
B1: CAMK2A (parent)
chain: ILLVGYPPFWDEDQHRLYKQIKAG

variants of: B1; test: protein stability index of a GFP-peptide fusion (GPS, HEK-293T) (PSI 1-6); higher = more stable; conditions: c terminus: a fixed tail appended;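 further: lentivirally expressed fusions sorted by FACS into six bins by GFP to DsRed ratio, PSI derived from sequencing read proportions per bin multiplied by bin number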
Keep the answer to the number alone.

For orientation, consider the following solved cases.
> print(dat)
   mutation.name         measurement.type  data.value
1            F9M  protein stability index        1.99
2           K22W  protein stability index         2.2
3            L2Y  protein stability index        2.93
4            V4F  protein stability index        2.76
5           W10F  protein stability index        2.27

For the variant "Q20I" , what protein stability index is on record?
1.96

For the variant "L3I" , what protein stability index is on record?
2.58

For the variant "V4T" , what protein stability index is on record?
2.31

For the variant "R16W" , what protein stability index is on record?
1.62

For the variant "L17K" , what protein stability index is on record?
1.74

For the variant "H15F" , what protein stability index is on record?
2.5

For the variant "K19T" , what protein stability index is on record?
1.72

For the variant "G5H" , what protein stability index is on record?
2.32
